# koff listing for each entry below
experimental_target: T1, fasCD40-His (Cynomolgus CD40/TNFRSF5 Protein, His Tag, Beijing ACRO Biosystems Co. Ltd., Cat #: CD0-C52H6) (Macaca fascicularis, UniProt G7PG38 21-193)
T1 construct: Bought protein; also called monkey (Macaca fascicularis) CD40; not shown: His tag
assay_name: SPR, Biacore 8K, Protein A chip, CD40-His as analyte, 1:1 Langmuir fit
Report as a plain number; the unit s⁻¹ is understood.

Problem: For the binder Bleselumab analog (antibody, human IgG4, V domains shown) VH: QLQLQESGPGLLKPSETLSLTCTVSGGSISSPGYYGGWIRQPPGKGLEWIGSIYKSGSTYHNPSLKSRVTISVDTSKNQFSLKLSSVTAADTAVYYCTRPVVRYFGWFDPWGQGTLVTVSS VL: AIQLTQSPSSLSASVGDRVTITCRASQGISSALAWYQQKPGKAPKLLIYDASNLESGVPSRFSGSGSGTDFTLTISSLQPEDFATYYCQQFNSYPTFGQGTKVEIKR , what koff is on record?
Solution: 0.000907

Problem: For the binder 12B5-IgG4-FLAA (antibody, V domains shown, Rest: human IgG4 constant regions with FLAA mutations (F234A and L235A, EU numbering); copies: 2 + 2) VH: QVQLVQSGPGLVKPSETLSLTCTVSGGSISYYYWSWIRQPPGKGLEWIGHISYSGSTNYNPSLKSRVTISEDTSKKQFSLKLDSVTAADTAVYYCAGGIVGARRGFDFWGQGTLVTVSS VL: EIVMTQSPATLSLSPGERATLSCRASQSVSNNLAWYQQKPGQAPRLLIYDASNRAADIPARFSGSGSGTDFTLTISSLEPEDFAVYYCQQRNNWPPTFGQGTKVEIKR , what koff is on record?
Solution: 0.000265

Problem: For the binder 2F8-IgG4-FLAA (antibody, V domains shown, Rest: human IgG4 constant regions with FLAA mutations (F234A and L235A, EU numbering)) VH: EVQLVQSGGGVVQPGRSLRLSCAASGFSFSSYAMHWVRQVPGKGLEWVSVISYDGDNKYHAESVKGRFTISRDNSKNILYLQMNSLRPEDTAVYYCARRGTVTNYYSYSGLDVWGQGTTVTVSS VL: DIQLTQSPLSLPVTPGEPASISCRSSQSLLYSNGKNYLDWYLQKPGQSPQLLIYLASNRASGVPDRFSGSGSGTDFTLKISRVEAEDVGVYFCMQALQTPRTFGQGTKVEIKR , what koff is on record?
Solution: 0.000297
